# test_summary: protein stability index of a GFP-peptide fusion (yeast GPS) (PSI 1-4); higher = more stable; sorted into four equal gates, so the index is relative within each strain
# test_context: doa10∆
Decision: protein stability index compared against 3; not below it gives Satisfied, below it gives Not satisfied.

Determine whether measured protein stability index meets or exceeds 3 for VIVTDPRSDAQAIKEAS [RPS0A]
Not satisfied

Determine whether measured protein stability index meets or exceeds 3 for KNDKLIKIEDFVDDMLR [SNF5]
Not satisfied

Determine whether measured protein stability index meets or exceeds 3 for SKDGLPNKVKTEDIRIR [RRP6]
Not satisfied

Determine whether measured protein stability index meets or exceeds 3 for ELKPVSLDNKTLDDLVT [YJL041W/NSP1]
Satisfied

Determine whether measured protein stability index meets or exceeds 3 for LLNINGSRKVAGILRGY [SMX2]
Not satisfied

Determine whether measured protein stability index meets or exceeds 3 for DACPLDNQPWQLARCGR [HRT1]
Not satisfied

Determine whether measured protein stability index meets or exceeds 3 for QVPLQQTQAIAQQQQLS [YGR119C/NUP57]
Not satisfied

Determine whether measured protein stability index meets or exceeds 3 for LKQDLKKISSFKSLIDE [YGL172W/NUP49]
Not satisfied

Determine whether measured protein stability index meets or exceeds 3 for IQEYQLCDNFNHFSLSY [COR1]
Not satisfied

Determine whether measured protein stability index meets or exceeds 3 for TGHPKGAAGAWMMNGAL [FAS2]
Not satisfied

Determine whether measured protein stability index meets or exceeds 3 for LAGKVGSIRVHKSGKLS [RPC53]
Not satisfied

Determine whether measured protein stability index meets or exceeds 3 for CESCSTVLCTPTGGKAK [RPS27B]
Not satisfied

Determine whether measured protein stability index meets or exceeds 3 for VLRLATNKGPLAQIWLA [MCD1]
Not satisfied

Determine whether measured protein stability index meets or exceeds 3 for RQKINGCEANIHSLVKQ [YIL149C/MLP2]
Satisfied

Determine whether measured protein stability index meets or exceeds 3 for GINSKSGKPFIAGFDLI [PUP3]
Satisfied

Determine whether measured protein stability index meets or exceeds 3 for RLMMNSKVGSADTGRDD [RPN11]
Satisfied

Determine whether measured protein stability index meets or exceeds 3 for NFEYDLSEYDAIQKKDN [YOR098C/NUP1]
Not satisfied

Determine whether measured protein stability index meets or exceeds 3 for VPIKSSKSGRIFALVFS [RPN13]
Not satisfied

Determine whether measured protein stability index meets or exceeds 3 for FPSIPLPINGPITNKER [RPC31]
Not satisfied

Determine whether measured protein stability index meets or exceeds 3 for PTPAIIKPKPLWSGKQI [RPO21]
Not satisfied

---

Answer each item with its documented protein stability index.
# test_summary: protein stability index of a GFP-peptide fusion (yeast GPS) (PSI 1-4); higher = more stable; sorted into four equal gates, so the index is relative within each strain
# test_context: ubr1∆
Write the number on its own, no unit after it.

Specify reported protein stability index for the sequence shown: NGQPLNQNFSLTFQPQQ [GRR1]
3.01

Specify reported protein stability index for the sequence shown: QLDSKLMVFNDDTKNQD [YGR119C/NUP57]
2.91

Specify reported protein stability index for the sequence shown: DESTIKRIKPNTEITQK [ECM29]
2.91

Specify reported protein stability index for the sequence shown: SKKETKLQENRTLLTEE [SMC2]
3.08

Specify reported protein stability index for the sequence shown: PFDDDEPPLSYEQHIEN [PRP8]
2.31

Specify reported protein stability index for the sequence shown: RTMYFILDGQDVEENRS [YJR042W/NUP85]
3.23

Specify reported protein stability index for the sequence shown: TKPAIRRLARRGGVKRI [HHF1]
3.45

Specify reported protein stability index for the sequence shown: GTQQSNMYTSTQKTELE [SIR4]
3

Specify reported protein stability index for the sequence shown: AQDSLTVTIASSLNLED [RPB8]
1.89

Specify reported protein stability index for the sequence shown: AVKNKYNVGKQLSNEII [PRP28]
2.3

Specify reported protein stability index for the sequence shown: ANTGGQDKIELSEEETL [SNF2]
2.94

Specify reported protein stability index for the sequence shown: DYYQSIYAKYGAKGSTL [FAS2]
3.13

Specify reported protein stability index for the sequence shown: MLGIRSSVKTCFKPMSL [RIP1]
2.9
